Target: MAST2, Q6P0Q8
Sequence (Q6P0Q8 1099-1202): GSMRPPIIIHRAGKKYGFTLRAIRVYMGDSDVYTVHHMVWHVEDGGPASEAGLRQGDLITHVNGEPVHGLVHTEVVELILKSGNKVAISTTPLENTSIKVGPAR
Experiment: holdup assay
Parameters: key: below the threshold = too weak to quantify, mostly under pKd 3.1 to 4
Conditions: plain residues with an end cap or a label only (N-terminal biotin on a linker: ado-ado)
Each entry below carries its reported pKd.

{"Binder": "QKNKDREYYV [NRXN3, Q9HDB5]", "pKd": 3.77}
{"Binder": "SRPHTNETSL [MCC, P23508]", "pKd": 5.66}

Reference for the values: paper PMC9482650
